The measured values listed here are drawn from PubChem BioAssay AID1159580.

Assay: chemical genetic growth profiling, strain panel (AID 1159580);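 further: tested at 20 µM; growth read once vehicle control cultures reached saturation at 30 °C; 1 = growth at the plate median or of vehicle wells; lower values mean less growth of the strain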
Settings: S. cerevisiae deletion strains, growth OD, locus YIL073C, strain SPO22
Screen size: about 5,500 compounds; about 2,000 (36%) were called active. About 18% were inconclusive and are not listed. No stated cut-off is given here; in the data, active means normalized growth mostly below about 0.91 (no sharp cut-off); inconclusive means no clear call, values can overlap the other calls; inactive means mostly above about 0.92. The list shows a part of the results. Where a SMILES comes first, the peptide text is derived from it.
Would you mind answering with one of these outcomes? true (1) for active, false (0) for inactive

What outcome does the record of this test show for CC(CCC(=O)O)[C@H]1CCC2C3C(C[C@H](O)[C@@]21C)[C@@]1(C)CC[C@@H](O)C[C@H]1C[C@H]3O (stereo not given in full) ?
false (0)

What outcome does the record of this test show for O=c1cc(-c2cc(O)c(O)c(O)c2)oc2cc(O)cc(O)c12 ?
false (0)

What outcome does the record of this test show for CC1=C2[C@H]3OC(=O)[C@@H](C)[C@@H]3CC[C@@]2(C)C=CC1=O ?
false (0)

What outcome does the record of this test show for COc1ccc(C(=O)CC(=O)c2ccc(C(C)(C)C)cc2)cc1 ?
false (0)

What outcome does the record of this test show for CO[C@]12C[C@@H](COC(=O)c3cncc(Br)c3)CN(C)[C@@H]1Cc1cn(C)c3cccc2c13 ?
false (0)

What outcome does the record of this test show for COc1ccc(C(=O)N2CCCC2=O)cc1 ?
false (0)

What outcome does the record of this test show for O=c1cc(-c2ccccc2)oc2cc(O)cc(O)c12 ?
false (0)

What outcome does the record of this test show for CC1CC2C3CC(F)C4=CC(=O)C=CC4(C)C3(F)C(O)CC2(C)C1C(=O)COC(=O)C(C)(C)C (stereo not given) ?
false (0)

What outcome does the record of this test show for C[C@H](CCC(=O)O)[C@H]1CCC2C3C(CC[C@@]21C)[C@@]1(C)CC[C@@H](O)C[C@H]1C[C@H]3O (stereo not given in full) ?
false (0)

What outcome does the record of this test show for Cc1nc2sccn2c(=O)c1CCN1CCC(=C(c2ccc(F)cc2)c2ccc(F)cc2)CC1 ?
true (1)

What outcome does the record of this test show for CCN(CC)CCOC(=O)C(c1ccccc1)c1ccccc1 ?
false (0)

What outcome does the record of this test show for S=P(N1CC1)(N1CC1)N1CC1 ?
false (0)

What outcome does the record of this test show for Cc1cc(O)c(C)c2c1C(=O)Oc1c(C)c(O)c(C(=O)O)c(C)c1O2 ?
false (0)

What outcome does the record of this test show for CCCCC[C@H](CC(=O)NO)C(=O)N[C@H](C(=O)N1CCC[C@H]1CO)C(C)C ?
false (0)

What outcome does the record of this test show for CC12CC3CC(C)(C1)CC(N)(C3)C2 ?
false (0)

What outcome does the record of this test show for COc1cc(C(=O)O)c2c(c1C)OC(=O)c1c(C)cc(O)c(C=O)c1O2 ?
false (0)

What outcome does the record of this test show for C=C1C2CC[C@@]3(C)[C@H](c4ccoc4)OC(=O)C[C@]13O[C@H]1CC(O)C(C)(C)C(CC(=O)OC)[C@@]21C (stereo not given in full) ?
false (0)

What outcome does the record of this test show for N[C@@H]1[C@@H](O)[C@H](O)[C@@H](CO)O[C@H]1O ?
false (0)

What outcome does the record of this test show for CN1CC(CNC(=O)OCc2ccccc2)CC2c3cccc4c3c(cn4C)CC21 (stereo not given) ?
false (0)

What outcome does the record of this test show for C=C1C2CC[C@@]3(C)[C@H](c4ccoc4)OC(=O)C[C@]13O[C@H]1CC(=O)C(C)(C)C(CC(=O)OC)[C@@]21C (stereo not given in full) ?
false (0)

What outcome does the record of this test show for COc1cc2c(cc1-c1cc3cc4ccoc4cc3oc1=O)OCO2 ?
false (0)

What outcome does the record of this test show for CC(=O)Nc1nnc(S(N)(=O)=O)s1 ?
true (1)

What outcome does the record of this test show for c1ccc2c(c1)CN1CCCC1=N2 ?
false (0)

What outcome does the record of this test show for Cc1cc(=O)oc2c(O)c(O)ccc12 ?
false (0)

What outcome does the record of this test show for CN1CCN(C2=Nc3ccccc3Oc3ccc(Cl)cc32)CC1 ?
false (0)

What outcome does the record of this test show for COc1cc([C@H]2Oc3cc([C@H]4Oc5cc(O)cc(O)c5C(=O)[C@@H]4O)ccc3O[C@@H]2CO)ccc1O ?
false (0)

What outcome does the record of this test show for Cc1cc(O)c(C=O)c2c1C(=O)Oc1c(C)c(O)c3c(c1O2)C(O)OC3=O (stereo not given) ?
false (0)

What outcome does the record of this test show for C[C@@H](N)[C@@H](O)c1ccccc1 ?
false (0)

What outcome does the record of this test show for C=C[C@H]1CN2CC[C@H]1C[C@@H]2[C@H](O)c1ccnc2ccccc12 ?
false (0)

What outcome does the record of this test show for C[C@@H]1CC2C3C[C@H](F)C4=CC(=O)C=C[C@]4(C)[C@@]3(F)[C@@H](O)C[C@]2(C)[C@@]1(O)C(=O)COC(=O)C(C)(C)C (stereo not given in full) ?
false (0)

What outcome does the record of this test show for C[C@H](N)[C@H](O)c1cccc(O)c1 ?
false (0)

What outcome does the record of this test show for C=C1C(C2(C)C=CC(=O)C(C)(C)C2CC(=O)OC)CC[C@@]2(C)[C@H](c3ccoc3)OC(=O)C3OC132 (stereo not given in full) ?
false (0)

What outcome does the record of this test show for CCCC(C(=O)OCCN(CC)CC)(c1ccccc1)c1ccccc1 ?
false (0)

What outcome does the record of this test show for CCCC(CCC)C(=O)O ?
false (0)

What outcome does the record of this test show for C=C1[C@H]2CC[C@@]3(C)[C@H](c4ccoc4)OC(=O)C[C@]13O[C@H]1C[C@H](O)C(C)(C)[C@H](CC(=O)OC)[C@]12C ?
false (0)

What outcome does the record of this test show for NCCCCC(N)C(=O)NC(Cc1ccc(O)cc1)C(=O)NC(CCCCN)C(=O)O (stereo not drawn) (H-Lys-Tyr-Lys-OH; configuration not given here) ?
false (0)

What outcome does the record of this test show for C=C1C2CCC3(C)C(c4ccoc4)OC(=O)CC13OC1CC(OC(C)=O)C(C)(C)C(CC(=O)OC)C12C (stereo not given) ?
false (0)

What outcome does the record of this test show for O=c1cc(-c2ccccc2)oc2c(O)c(O)ccc12 ?
false (0)

What outcome does the record of this test show for Cc1cc(C)cc(OCC2CNC(=O)O2)c1 (stereo not given) ?
false (0)

What outcome does the record of this test show for C=C1C2=CC(=O)O[C@@H](c3ccoc3)[C@]2(C)CCC1[C@@]1(C)C=CC(=O)C(C)(C)[C@@H]1CC(=O)OC (stereo not given in full) ?
false (0)
